target under test: LCK (Homo sapiens, UniProt P06239)
Sequence (P06239 whole entry): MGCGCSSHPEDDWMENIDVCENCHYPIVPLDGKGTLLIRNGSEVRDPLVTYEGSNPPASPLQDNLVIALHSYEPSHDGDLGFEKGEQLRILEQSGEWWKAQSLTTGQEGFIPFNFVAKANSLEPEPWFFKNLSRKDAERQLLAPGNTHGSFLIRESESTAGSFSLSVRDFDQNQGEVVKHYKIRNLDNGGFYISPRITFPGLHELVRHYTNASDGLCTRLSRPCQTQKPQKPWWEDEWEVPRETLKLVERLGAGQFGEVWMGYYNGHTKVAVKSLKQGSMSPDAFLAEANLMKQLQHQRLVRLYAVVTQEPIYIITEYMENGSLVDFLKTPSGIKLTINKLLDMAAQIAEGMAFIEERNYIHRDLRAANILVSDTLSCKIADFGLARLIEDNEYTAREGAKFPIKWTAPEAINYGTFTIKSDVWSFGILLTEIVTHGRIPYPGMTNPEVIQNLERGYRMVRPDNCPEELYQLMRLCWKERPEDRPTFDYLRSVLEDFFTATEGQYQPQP
experiment summary: Inhibition of a panel of kinases, in vitro HotSpot kinase assay: LCK
Format: biochemical
measurement conditions: E compounds, Table 17; read-out: IC50 LCK
value kind: IC50

chem smiles	obs value
C=CC(=O)N[C@@H]1CCCN(c2nnc(C(N)=O)c(Nc3ccc(C4(C)CCN(C5CC5)CC4)cc3)n2)[C@@H]1C	100 to 1000 nM
C=CC(=O)N1CCC[C@@H](Nc2cnc(C(N)=O)c(Nc3ccc(C4(C)CCN(C5CCCC5)CC4)cc3)n2)[C@H]1C	10 to 100 nM
C=CC(=O)N1CCC[C@@H](N(C)c2cnc(C(N)=O)c(Nc3ccc(C4CCN(C5CCCC5)CC4)cc3)n2)C1	10 to 100 nM
C[C@@H]1[C@H](NC(=O)c2ccc(C(=O)N(C)C)cc2)CCCN1c1cnc(C(N)=O)c(Nc2cnn(C)c2)n1	100 to 1000 nM

###

target under test: TEC (Homo sapiens, UniProt P42680)
Sequence (P42680 whole entry): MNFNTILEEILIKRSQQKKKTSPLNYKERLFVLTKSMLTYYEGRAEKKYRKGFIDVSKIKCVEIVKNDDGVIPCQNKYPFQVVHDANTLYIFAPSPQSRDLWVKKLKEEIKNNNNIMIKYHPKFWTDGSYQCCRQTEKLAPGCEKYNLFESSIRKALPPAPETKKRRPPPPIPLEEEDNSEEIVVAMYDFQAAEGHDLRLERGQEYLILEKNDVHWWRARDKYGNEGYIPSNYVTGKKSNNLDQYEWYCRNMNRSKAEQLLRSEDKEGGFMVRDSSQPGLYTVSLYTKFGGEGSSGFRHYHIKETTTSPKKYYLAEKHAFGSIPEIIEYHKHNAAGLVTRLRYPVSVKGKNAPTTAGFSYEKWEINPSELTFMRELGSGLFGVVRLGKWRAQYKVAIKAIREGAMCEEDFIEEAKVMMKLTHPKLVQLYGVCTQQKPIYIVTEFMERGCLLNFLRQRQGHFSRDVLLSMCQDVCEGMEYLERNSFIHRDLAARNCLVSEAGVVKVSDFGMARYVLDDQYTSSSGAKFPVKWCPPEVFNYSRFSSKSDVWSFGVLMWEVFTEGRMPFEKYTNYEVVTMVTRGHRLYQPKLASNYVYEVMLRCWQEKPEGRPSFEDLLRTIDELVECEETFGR
experiment summary: Inhibition of a panel of kinases, in vitro HotSpot kinase assay: TEC
Type: biochemical
measurement conditions: D-compounds panel data; 1 μM ATP
value kind: IC50

compound	obs value
C[C@@H]1[C@H](NC(=O)c2ccc(C3CC3)nc2)CCCN1c1cnc(C(N)=O)c(Nc2ccc(N3CCN(C)CC3)cc2)n1 [Example D-203]	≤ 10 nM
C[C@@H]1[C@H](NC(=O)c2ccc(C3CC3)cc2F)CCCN1c1cnc(C(N)=O)c(Nc2ccc(CN3CCN(C)CC3)cn2)n1 [Example D-132]	1000 to 10000 nM
CN1CCN(c2ccc(Nc3nc(N4CCC[C@@H](n5ccc6cc(C7CC7)ccc6c5=O)C4)cnc3C(N)=O)nc2)CC1 [Example D-179]	1000 to 10000 nM

###

target under test: ITK (Homo sapiens, UniProt Q08881)
Sequence (Q08881 whole entry): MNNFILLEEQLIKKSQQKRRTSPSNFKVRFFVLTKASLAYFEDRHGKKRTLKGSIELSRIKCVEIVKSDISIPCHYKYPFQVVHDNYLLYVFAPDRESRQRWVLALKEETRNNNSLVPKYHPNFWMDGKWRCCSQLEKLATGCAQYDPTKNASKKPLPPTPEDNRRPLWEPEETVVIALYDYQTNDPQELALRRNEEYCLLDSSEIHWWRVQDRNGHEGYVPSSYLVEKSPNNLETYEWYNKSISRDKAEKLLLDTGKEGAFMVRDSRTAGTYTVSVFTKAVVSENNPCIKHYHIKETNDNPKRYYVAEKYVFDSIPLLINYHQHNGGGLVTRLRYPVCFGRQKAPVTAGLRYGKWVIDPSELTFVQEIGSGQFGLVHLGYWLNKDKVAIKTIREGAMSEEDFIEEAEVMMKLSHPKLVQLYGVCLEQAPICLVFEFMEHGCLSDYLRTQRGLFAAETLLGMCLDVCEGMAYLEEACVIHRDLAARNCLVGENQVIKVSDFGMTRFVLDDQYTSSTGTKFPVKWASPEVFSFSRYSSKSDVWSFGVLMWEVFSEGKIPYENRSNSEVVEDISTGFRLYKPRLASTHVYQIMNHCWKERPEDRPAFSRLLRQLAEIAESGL
experiment summary: Inhibition of a panel of kinases, in vitro HotSpot kinase assay: ITK
Format: biochemical
measurement conditions: D-compounds panel data; 1 μM ATP
pIC50: −log10 of the molar value.
compounds and their reported pIC50
value kind: pIC50

compound	obs value
Cn1cc(Nc2nc(N3CCC[C@@H](n4ccc5cc(C6CC6)ccc5c4=O)C3)cnc2C(N)=O)cn1	< 5.00
C[C@@H]1[C@H](NC(=O)c2ccc(C(C)(O)CO)cc2)CCCN1c1cnc(C(N)=O)c(Nc2cnn(C)c2)n1 (single isomer, unassigned) [Example D-265]	6.00 to 7.00
C[C@@H]1[C@H](NC(=O)c2ccc(C3CC3)cc2)CCCN1c1cnc(C(N)=O)c(Nc2cnn(CC3CCC(F)(F)CC3)c2)n1	6.00 to 7.00
C[C@@H]1[C@H](NC(=O)c2ccc(C3CC3)cc2)CCCN1c1cnc(C(N)=O)c(Nc2ccc(N3CCN(C)CC3)cc2)n1	6.00 to 7.00
Cc1nc2cc(C(=O)N[C@@H]3CCCN(c4cnc(C(N)=O)c(Nc5cnn(C)c5)n4)[C@@H]3C)ccc2[nH]1	6.00 to 7.00
C[C@@H]1[C@H](NC(=O)c2ccc(C(C)(C)O)nc2)CCCN1c1nnc(C(N)=O)c(Nc2cnn(C)c2)n1	6.00 to 7.00

###

target under test: EGFR (Homo sapiens, UniProt P00533)
Sequence (P00533 25-1210): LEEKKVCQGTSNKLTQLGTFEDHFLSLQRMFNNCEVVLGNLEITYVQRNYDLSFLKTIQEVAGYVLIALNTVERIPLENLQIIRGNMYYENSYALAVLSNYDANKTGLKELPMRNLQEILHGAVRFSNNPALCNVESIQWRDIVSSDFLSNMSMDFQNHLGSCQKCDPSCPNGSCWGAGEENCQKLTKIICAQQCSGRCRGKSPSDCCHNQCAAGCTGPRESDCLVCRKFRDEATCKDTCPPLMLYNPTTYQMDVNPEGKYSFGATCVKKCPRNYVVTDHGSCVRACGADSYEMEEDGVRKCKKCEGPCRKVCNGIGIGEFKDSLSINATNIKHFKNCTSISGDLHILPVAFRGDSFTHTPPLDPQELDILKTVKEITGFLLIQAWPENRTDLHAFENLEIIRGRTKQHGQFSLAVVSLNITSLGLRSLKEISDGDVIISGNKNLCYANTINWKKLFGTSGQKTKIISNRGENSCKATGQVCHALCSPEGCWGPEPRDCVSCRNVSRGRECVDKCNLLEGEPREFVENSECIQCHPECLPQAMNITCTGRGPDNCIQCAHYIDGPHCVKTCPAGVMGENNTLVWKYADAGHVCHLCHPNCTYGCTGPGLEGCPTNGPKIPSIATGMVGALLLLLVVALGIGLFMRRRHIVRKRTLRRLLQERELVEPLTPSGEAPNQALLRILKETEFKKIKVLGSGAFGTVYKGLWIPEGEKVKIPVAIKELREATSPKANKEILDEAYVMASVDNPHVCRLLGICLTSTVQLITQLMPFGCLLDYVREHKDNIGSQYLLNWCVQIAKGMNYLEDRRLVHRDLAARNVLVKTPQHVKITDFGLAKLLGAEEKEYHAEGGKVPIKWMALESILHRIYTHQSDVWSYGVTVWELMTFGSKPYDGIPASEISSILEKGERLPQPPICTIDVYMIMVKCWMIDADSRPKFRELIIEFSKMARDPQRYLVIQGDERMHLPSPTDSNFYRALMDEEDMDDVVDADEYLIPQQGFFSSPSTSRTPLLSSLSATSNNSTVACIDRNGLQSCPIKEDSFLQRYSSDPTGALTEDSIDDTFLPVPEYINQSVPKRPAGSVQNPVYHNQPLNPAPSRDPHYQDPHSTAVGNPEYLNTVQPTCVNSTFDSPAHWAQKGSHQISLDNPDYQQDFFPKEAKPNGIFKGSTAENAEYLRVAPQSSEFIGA
experiment summary: Inhibition of a panel of kinases, in vitro HotSpot kinase assay: EGFR
Assay type: biochemical
measurement conditions: D-compounds panel data; 1 μM ATP
pIC50: −log10 of the molar value.

chem smiles	pIC50
CN1CCN(C(=O)c2ccc(Nc3nc(N[C@H]4CC[C@@H](NC(=O)N(C)C)CC4)cnc3C(N)=O)cc2)CC1	5.00 to 6.00
CN(C)c1ccc2c(c1)CCN([C@@H]1CCCN(c3cnc(C(N)=O)c(Nc4cnn(C)c4)n3)C1)C2=O	< 5.00
C[C@@H]1[C@H](NC(=O)c2cc(C3CC3)n(C)n2)CCCN1c1cnc(C(N)=O)c(Nc2cnn(C)c2)n1	6.00 to 7.00
C[C@@H]1[C@H](NC(=O)c2ccc(C3CC3)cc2)CCCN1c1cnc(C(N)=O)c(Nc2cnn(C3CCC(F)(F)CC3)c2)n1	< 5.00
C[C@@H]1[C@H](NC(=O)c2ccc(C(C)(C)O)nc2)CCCN1c1nnc(C(N)=O)c(Nc2cnn(C)c2)n1	5.00 to 6.00
C[C@@H]1[C@H](NC(=O)c2ccc(C3CC3)cc2F)CCCN1c1cnc(C(N)=O)c(Nc2ccc(S(=O)(=O)N3CCN(C)CC3)cc2)n1	5.00 to 6.00
C[C@@H]1[C@H](NC(=O)c2ccc(C3CC3)cc2F)CCCN1c1cnc(C(N)=O)c(Nc2ccc(N3CCN(C)CC3=O)cc2)n1	6.00 to 7.00
C[C@@H]1[C@H](NC(=O)c2ccc(C(C)(C)O)cc2)CCCN1c1nnc(C(N)=O)c(Nc2cnn(C)c2)n1	5.00 to 6.00
C[C@@H]1[C@H](NC(=O)c2ccc(C3CC3)cc2F)CCCN1c1cnc(C(N)=O)c(Nc2ccc(CN3CCN(C)CC3)cn2)n1	< 5.00
C[C@@H]1[C@H](NC(=O)c2ccc(SC(F)(F)F)cc2)CCCN1c1cnc(C(N)=O)c(Nc2ccc(N3CCN(C)CC3)cc2)n1	6.00 to 7.00
C[C@@H]1[C@H](NC(=O)c2ccc3scnc3c2)CCCN1c1cnc(C(N)=O)c(Nc2ccc(N3CCN(C)CC3)cc2)n1	6.00 to 7.00
C[C@@H]1[C@H](NC(=O)c2ccc(C(C)(C)O)cc2F)CCCN1c1cnc(C(N)=O)c(Nc2cnn(C)c2)n1	7.00 to 8.00
C[C@@H]1[C@H](NC(=O)c2ccc(C3CC3)cc2)CCCN1c1cnc(C(N)=O)c(Nc2cnn(C)c2C(F)(F)F)n1	< 5.00

###

target under test: JAK3 (Homo sapiens, UniProt P52333)
Sequence (P52333 1-1124): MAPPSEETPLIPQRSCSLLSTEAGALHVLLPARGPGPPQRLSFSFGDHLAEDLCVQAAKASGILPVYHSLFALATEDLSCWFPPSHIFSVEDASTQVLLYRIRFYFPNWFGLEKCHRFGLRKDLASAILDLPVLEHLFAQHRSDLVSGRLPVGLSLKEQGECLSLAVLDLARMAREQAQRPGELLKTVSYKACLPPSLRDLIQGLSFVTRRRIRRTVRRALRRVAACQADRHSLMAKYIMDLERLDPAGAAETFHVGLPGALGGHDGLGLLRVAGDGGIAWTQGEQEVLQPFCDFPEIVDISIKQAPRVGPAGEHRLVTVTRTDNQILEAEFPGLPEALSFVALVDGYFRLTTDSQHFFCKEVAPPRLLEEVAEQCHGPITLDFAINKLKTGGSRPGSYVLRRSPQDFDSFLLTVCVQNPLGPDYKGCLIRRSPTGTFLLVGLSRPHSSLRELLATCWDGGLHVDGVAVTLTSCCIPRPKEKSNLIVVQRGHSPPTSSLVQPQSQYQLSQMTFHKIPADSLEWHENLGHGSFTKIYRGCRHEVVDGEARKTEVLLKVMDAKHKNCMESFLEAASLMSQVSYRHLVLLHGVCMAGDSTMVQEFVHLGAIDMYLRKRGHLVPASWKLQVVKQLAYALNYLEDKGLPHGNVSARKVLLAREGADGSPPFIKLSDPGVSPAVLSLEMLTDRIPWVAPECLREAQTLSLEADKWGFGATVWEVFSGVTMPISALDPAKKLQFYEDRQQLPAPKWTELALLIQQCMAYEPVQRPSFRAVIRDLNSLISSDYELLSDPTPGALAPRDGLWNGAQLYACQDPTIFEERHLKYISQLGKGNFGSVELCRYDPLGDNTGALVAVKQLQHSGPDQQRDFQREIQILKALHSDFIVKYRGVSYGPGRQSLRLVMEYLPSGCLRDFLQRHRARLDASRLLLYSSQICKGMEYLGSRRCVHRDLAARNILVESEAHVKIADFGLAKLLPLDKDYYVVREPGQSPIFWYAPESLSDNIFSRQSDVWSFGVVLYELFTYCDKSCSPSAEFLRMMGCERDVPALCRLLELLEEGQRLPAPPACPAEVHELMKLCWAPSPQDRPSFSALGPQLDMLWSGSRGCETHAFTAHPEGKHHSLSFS
experiment summary: Inhibition of a panel of kinases, in vitro HotSpot kinase assay: JAK3
Assay type: biochemical
measurement conditions: D-compounds panel data; 1 μM ATP; read-out: IC50 JAK3
pIC50: −log10 of the molar value.

compound	pIC50
COCCn1cc(Nc2nc(N3CCC[C@@H](NC(=O)c4ccc(C5CC5)cc4)[C@H]3C)cnc2C(N)=O)cn1 [Example D-270]	5.00 to 6.00
Cc1ccc(C(=O)N[C@@H]2CCCN(c3cnc(C(N)=O)c(Nc4cnn(C)c4)n3)[C@@H]2C)cc1 [Example D-232]	5.00 to 6.00
C[C@@H]1[C@H](NC(=O)c2ccc(C3CC3)nc2)CCCN1c1cnc(C(N)=O)c(Nc2ccc(N3CCN(C)CC3)cc2)n1 [Example D-203]	5.00 to 6.00
C[C@@H]1[C@H](NC(=O)c2ccc3ncsc3c2)CCCN1c1cnc(C(N)=O)c(Nc2cnn(C)c2)n1 [Example D-243]	6.00 to 7.00
C[C@@H]1[C@H](NC(=O)c2ccc(C3CC3)cc2F)CCCN1c1cnc(C(N)=O)c(Nc2cnn(C)c2)n1 [Example D-1]	5.00 to 6.00
C[C@@H]1[C@H](NC(=O)c2ccc3c(c2)C(C)(C)CO3)CCCN1c1cnc(C(N)=O)c(Nc2cnn(C)c2)n1 [Example D-55]	< 5.00
Cc1nc2cc(C(=O)N[C@@H]3CCCN(c4cnc(C(N)=O)c(Nc5cnn(C)c5)n4)[C@@H]3C)ccc2[nH]1 [Example D-261]	5.00 to 6.00
